Cited source for all entries: patent US5690904A

- METHOD NOTES: Biodistribution of 99mTc labelled complexes in rats (Tc brain bioassay, Example 64, Table I)
- Assay type: in vivo, Female Sprague-Dawley rats
- CONDITION PARAMETERS: rat, i.v. tail vein, 5 min post injection
Label rule, in plain words: Brain:blood of 1 and up is label 1, under 1 is label 0.

Prompt line: Given CC1(C)C(=O)[N]2CC[N]3c4ccccc4[S][Tc]23(=[O])[SH]1CCCN (stereo not shown) , state whether its Brain:blood is at least 1.
Response line: label 0

Prompt line: Same thing, different compound: C#CC[SH]1C(C)(C)C(=O)[N]2CC[N]3c4ccccc4[S][Tc]231=[O] (stereo not shown)
Response line: label 0

Prompt line: Same thing, different compound: CCCC[SH]1C(C)(C)C(=O)[N]2CC[N]3c4ccccc4[S][Tc]231=[O] (stereo not shown)
Response line: label 1

Prompt line: Same thing, different compound: COC(=O)C[SH]1C(C)(C)C(=O)[N]2CC[N]3c4ccccc4[S][Tc]231=[O] (stereo not shown)
Response line: label 0

Prompt line: Same thing, different compound: CC[SH]1C(C)(C)C(=O)[N]2CC[N]3c4ccccc4[S][Tc]231=[O] (stereo not shown)
Response line: label 1

Prompt line: Same thing, different compound: C[SH]1C(C)(C)C(=O)[N]2CC[N]3c4ccccc4[S][Tc]231=[O] (stereo not shown)
Response line: label 1

Prompt line: Same thing, different compound: CCC[SH]1C(C)(C)C(=O)[N]2CC[N]3c4ccccc4[S][Tc]231=[O] (stereo not shown)
Response line: label 1

Prompt line: Same thing, different compound: CC1(C)C(=O)[N]2CC[N]3c4ccccc4[S][Tc]23(=[O])[SH]1CCC#N (stereo not shown)
Response line: label 0

Prompt line: Same thing, different compound: C[SH]1c2ccccc2[N]2CC(=O)[N]3CC(C)(C)[S][Tc]321=[O] (stereo not shown)
Response line: label 0

Prompt line: Same thing, different compound: C[SH]1c2ccccc2[N]2CC[N]3C(=O)C(C)(C)[S][Tc]321=[O] (stereo not shown)
Response line: label 1

Prompt line: Same thing, different compound: CC1(C)C(=O)[N]2CC[N]3c4ccccc4[S][Tc]23(=[O])[SH]1CCO (stereo not shown)
Response line: label 1

Prompt line: Same thing, different compound: CC1(C)C(=O)[N]2CC[N]3c4ccccc4[S][Tc]23(=[O])[SH]1CCCl (stereo not shown)
Response line: label 1

Prompt line: Same thing, different compound: CCC[SH]1c2ccccc2[N]2CC[N]3C(=O)C(C)(C)[S][Tc]321=[O] (stereo not shown)
Response line: label 1
